- Species: Rattus norvegicus
- Protocol description: Open TG-GATES - Regimen: Daily Repeat
- Format: toxicity, organism-based, Sprague-Dawley
- Parameters: regimen Daily Repeat, gender Male, age 6 weeks
- Condition: in vivo, po, 300 mg/kg, […], tissue Blood, route gavage, dose level Middle, time 7 day
Result type: Ret (%)
Give the number; % is assumed, so skip it.

*Q* Answer with the recorded Ret of CN/C(=N/CCSCc1nc[nH]c1C)NC#N [CIMETIDINE] only.
*A* 5.3

*Q* Answer with the recorded Ret of O=C(OC[C@H]1O[C@@H](OC(=O)c2cc(O)c(O)c(OC(=O)c3cc(O)c(O)c(O)c3)c2)[C@H](OC(=O)c2cc(O)c(O)c(OC(=O)c3cc(O)c(O)c(O)c3)c2)[C@@H](OC(=O)c2cc(O)c(O)c(OC(=O)c3cc(O)c(O)c(O)c3)c2)[C@@H]1OC(=O)c1cc(O)c(O)c(OC(=O)c2cc(O)c(O)c(O)c2)c1)c1cc(O)c(O)c(OC(=O)c2cc(O)c(O)c(O)c2)c1 [TANNIC ACID] only.
*A* 6.5

---

Consider the following compounds and their measured KIDNEY_R readings.
- Organism: Rattus norvegicus
- Protocol description: Open TG-GATES - Regimen: Single
- Type: toxicity, organism-based, Sprague-Dawley
- Set-up: regimen Single, gender Male, age 6 weeks
- Condition: in vivo, po, 1000 mg/kg, 6 h, tissue Kidney, route gavage, dose level High
Give the number; g is assumed, so skip it.

Here is how some compounds turned out for KIDNEY_R.
- O=C(OC[C@H]1O[C@@H](OC(=O)c2cc(O)c(O)c(OC(=O)c3cc(O)c(O)c(O)c3)c2)[C@H](OC(=O)c2cc(O)c(O)c(OC(=O)c3cc(O)c(O)c(O)c3)c2)[C@@H](OC(=O)c2cc(O)c(O)c(OC(=O)c3cc(O)c(O)c(O)c3)c2)[C@@H]1OC(=O)c1cc(O)c(O)c(OC(=O)c2cc(O)c(O)c(O)c2)c1)c1cc(O)c(O)c(OC(=O)c2cc(O)c(O)c(O)c2)c1 [TANNIC ACID]: 0.9
- CNC(=C[N+](=O)[O-])NCCSCc1ccc(CN(C)C)o1 [RANITIDINE]: 0.9
- COC(=O)C1=C(C)NC(C)=C(C(=O)OC)C1c1ccccc1[N+](=O)[O-] [NIFEDIPINE]: 0.9
- CN/C(=N/CCSCc1nc[nH]c1C)NC#N [CIMETIDINE]: 1

*Q* Answer with the recorded KIDNEY_R of Cc1nnc2n1-c1ccc(Cl)cc1C(c1ccccc1Cl)=NC2 [TRIAZOLAM] only.
*A* 0.9

---

- Species on record: Rattus norvegicus
- Protocol description: Open TG-GATES - Regimen: Single
- Format: toxicity, organism-based, Sprague-Dawley
- Set-up: regimen Single, gender Male, age 6 weeks
- Condition: in vivo, po, 0 mg/kg, 9 h, tissue Kidney, route gavage, dose level Control
Result type: KIDNEY_TOTAL (g)
Give the number; g is assumed, so skip it.

Here is how some compounds turned out for KIDNEY_TOTAL.
• CC(C)NNC(=O)c1ccncc1 [IPRONIAZID] = 1.9
• Brc1ccccc1 [BROMOBENZENE] = 1.6
• NC1=NC(=O)C(c2ccccc2)O1 (centres undefined) [PEMOLINE] = 1.7
• CN1C(=O)CCS(=O)(=O)C1c1ccc(Cl)cc1 (centres undefined) [CHLORMEZANONE] = 1.8
• CN(C)CCC(c1ccc(Cl)cc1)c1ccccn1 (centres undefined) [CHLORPHENIRAMINE] = 1.7
• O=C(OC[C@H]1O[C@@H](OC(=O)c2cc(O)c(O)c(OC(=O)c3cc(O)c(O)c(O)c3)c2)[C@H](OC(=O)c2cc(O)c(O)c(OC(=O)c3cc(O)c(O)c(O)c3)c2)[C@@H](OC(=O)c2cc(O)c(O)c(OC(=O)c3cc(O)c(O)c(O)c3)c2)[C@@H]1OC(=O)c1cc(O)c(O)c(OC(=O)c2cc(O)c(O)c(O)c2)c1)c1cc(O)c(O)c(OC(=O)c2cc(O)c(O)c(O)c2)c1 [TANNIC ACID] = 1.7
• COC(=O)C1=C(C)NC(C)=C(C(=O)OC)C1c1ccccc1[N+](=O)[O-] [NIFEDIPINE] = 1.7
• Nc1c2c(nc3ccccc13)CCCC2 [TACRINE] = 1.8

Lab note: next compound to report on.
*Q* Answer with the recorded KIDNEY_TOTAL of CCCc1cc(=O)[nH]c(=S)[nH]1 [PROPYLTHIOURACIL] only.
*A* 1.7

Sourced from ChEMBL document CHEMBL3885861
